# credit: patent US20080269251A1

# Study system: human adrenergic-α2C receptor (Homo sapiens)
# Construct: expressed in transfected cells; host or cells: CHO cells, stably transfected; membrane preparation
# Sequence (P18825 whole entry): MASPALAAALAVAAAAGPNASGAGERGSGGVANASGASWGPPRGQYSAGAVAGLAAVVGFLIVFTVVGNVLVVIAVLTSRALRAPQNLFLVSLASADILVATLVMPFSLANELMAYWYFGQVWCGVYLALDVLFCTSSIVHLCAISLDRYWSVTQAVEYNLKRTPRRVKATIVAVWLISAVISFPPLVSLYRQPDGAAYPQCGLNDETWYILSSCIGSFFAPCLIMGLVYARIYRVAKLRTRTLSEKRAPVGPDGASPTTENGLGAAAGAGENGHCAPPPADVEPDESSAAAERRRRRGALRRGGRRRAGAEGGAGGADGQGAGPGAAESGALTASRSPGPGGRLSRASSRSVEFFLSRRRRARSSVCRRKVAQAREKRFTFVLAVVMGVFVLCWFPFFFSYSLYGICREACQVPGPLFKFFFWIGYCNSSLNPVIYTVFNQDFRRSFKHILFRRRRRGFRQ
# Assay details: Radioligand binding experiment for hα2C-adrenoceptor ([3H]raulwolscine)
# Condition description: [3H]raulwolscine 1 nM, 60 minutes at 25° C.; read-out: h-α2C pIC50 (converted)
Experimental readout: IC50 (nM)
Respond with the bare value in nM.

COc1ccc(Cn2c(-c3cccc(CN4CCC(O)CC4)c3)c(Cl)nc(NC3CCN(Cc4ccc5ccccc5c4)CC3)c2=O)cc1 [8-10] : 79.4
O=C(Cn1ccnc(NC2CCN(Cc3ccc4ccccc4c3)CC2)c1=O)NCc1ccccc1 [1-68] : 20
O=c1c(N2CCN(Cc3cccc4ccccc34)CC2)nccn1Cc1ccccc1 [9-26] : 1000

Fill in IC50 for record CC(C)(C)OC(=O)NCCCn1ccnc(NC2CCN(Cc3ccc4ccccc4c3)CC2)c1=O [1-32]
12.6

Fill in IC50 for record O=C(NCCN1CCCCC1)c1ccc(-n2ccnc(NC3CCN(Cc4ccc5ccccc5c4)CC3)c2=O)cc1 [1-88]
25.1

Fill in IC50 for record COCCN(C)Cc1ccc(-n2ccnc(NC3CCN(Cc4ccc5ccccc5c4)CC3)c2=O)cc1 [1-21]
15.8

Fill in IC50 for record O=c1c(NC2CCN(Cc3ccc4ccccc4c3)CC2)nccn1CCN1CCOCC1 [2-09]
158
